The measured values listed here are drawn from patent US20240360227A1.

The following binders are listed with their measured koff values.
targetOrSystem: Recombinant human his-tagged IGF R extracellular domain protein (human) (UniProt P08069)
experimentalProtocol: SPR, Ab captured via anti-huIgG Fc, dissociation at pH 6

- binder: "VRDN-02050 (antibody, V domains shown) VH: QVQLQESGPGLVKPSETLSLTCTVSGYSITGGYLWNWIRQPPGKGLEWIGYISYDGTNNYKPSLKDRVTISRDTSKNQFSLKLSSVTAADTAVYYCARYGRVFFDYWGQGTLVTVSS VL: DIVMTQSPLSLPVTPGEPASISCRSSQSIVHSNGNTYLQWYLQKPGQSPQLLIYKVSNRLHGVPDRFSGSGSGTDFTLKISRVEAEDVGVYYCFQGSHVPWTFGQGTKVEIK"
  unitOfMeasure: "s⁻¹"
  koff: "9.87e-05"
- binder: "VRDN-02072 (antibody, V domains shown) VH: QVQLQESGPGLVKPSETLSLTCTVSGYSITGGYLWNWIRQPPGKGLEWIGYIHYDGTNNYKPSLKDRVTISRDTSKNQFSLKLSSVTAADTAVYYCARHGRVFFDYWGQGTLVTVSS VL: DIVMTQSPLSLPVTPGEPASISCRSHQSIVHSNGNTYLQWYLQKPGQSPQLLIYKVSNRLYGVPDRFSGSGSGTDFTLKISRVEAEDVGVYYCFQGSHVHWTFGQGTKVEIK"
  unitOfMeasure: "s⁻¹"
  koff: "5.3e-05"
- binder: "VRDN-02017 (antibody, V domains shown) VH: QVQLQESGPGLVKPSETLSLTCTVSGYSITGGYLWNWIRQPPGKGLEWIGYISYDHTNNYKPSLKDRVTISRDTSKNQFSLKLSSVTAADTAVYYCARYGRVFFDYWGQGTLVTVSS VL: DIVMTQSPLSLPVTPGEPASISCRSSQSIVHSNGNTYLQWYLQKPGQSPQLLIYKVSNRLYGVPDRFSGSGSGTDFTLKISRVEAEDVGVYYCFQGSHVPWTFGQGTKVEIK"
  unitOfMeasure: "s⁻¹"
  koff: 0.00011
- binder: "VRDN-02061 (antibody, V domains shown) VH: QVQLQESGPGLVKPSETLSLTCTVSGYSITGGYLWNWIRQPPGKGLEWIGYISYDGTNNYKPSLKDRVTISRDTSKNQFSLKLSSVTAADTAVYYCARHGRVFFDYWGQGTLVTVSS VL: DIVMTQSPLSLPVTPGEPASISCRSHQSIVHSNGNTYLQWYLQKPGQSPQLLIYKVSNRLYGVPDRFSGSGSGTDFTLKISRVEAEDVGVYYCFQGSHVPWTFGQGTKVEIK"
  unitOfMeasure: "s⁻¹"
  koff: "4.34e-05"
- binder: "VRDN-02013 (antibody, V domains shown) VH: QVQLQESGPGLVKPSETLSLTCTVSGYSITGGYLWNWIRQPPGKGLEWIGYHSYDGTNNYKPSLKDRVTISRDTSKNQFSLKLSSVTAADTAVYYCARYGRVFFDYWGQGTLVTVSS VL: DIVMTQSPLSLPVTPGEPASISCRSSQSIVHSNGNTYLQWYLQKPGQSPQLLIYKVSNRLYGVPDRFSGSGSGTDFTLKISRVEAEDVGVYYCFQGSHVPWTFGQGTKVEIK"
  unitOfMeasure: "s⁻¹"
  koff: 0.000109
